// provenance: patent US10239825B2

- Test system: adult female Sprague-Dawley rats
- assay_info: rat infusion study: loss/recovery of righting reflex and walk (anaesthetic effect)
- Type: in vivo
- protocol_conditions: time from end of infusion to recovery of righting reflex
readout: RRR Time (s)
Answer format: numeric, s implied, no suffix.

Worked cases, answers included:
CCCOC(=O)CCNC1(c2ccccc2Cl)CCCCC1=O.Cl (racemic)
0
CCOC(=O)CCN[C@]1(c2ccccc2Cl)CCCCC1=O.Cl [(S)-C2Et]
62

Task item: Return reported RRR Time. Input compound: CCOC(=O)CCN(C)C1(c2ccccc2Cl)CCCCC1=O (centres unmarked)
Reply: 0

Task item: Return reported RRR Time. Input compound: CCOC(=O)CCCNC1(c2ccccc2Cl)CCCCC1=O.Cl (racemic)
Reply: 95

Task item: Return reported RRR Time. Input compound: CCOC(=O)CCNC1(c2ccccc2Cl)CCCCC1=O.Cl (racemic)
Reply: 177

----------
- Tested on: adult female Sprague-Dawley rats
- assay_info: rat infusion study: pedal withdrawal reflex PWR = 1 (analgesic effect)
- Format: in vivo
- protocol_conditions: ratio compound/ketamine
Attribute: PWR = 1 Dose, head-to-head ratio to ketamine
# output: bare number, no unit

Worked cases, answers included:
CCOC(=O)CCCNC1(c2ccccc2Cl)CCCCC1=O.Cl (racemic) [rac-C3Et]
1.83
CCOC(=O)CCN(C)C1(c2ccccc2Cl)CCCCC1=O (stereo not shown) [compound 19]
3.96
CCCOC(=O)CCCNC1(c2ccccc2Cl)CCCCC1=O.Cl (racemic) [rac-C3nPr]
7.46
CC(=O)OCCCN[C@]1(c2ccccc2Cl)CCCCC1=O.Cl [(S)-C3OAc]
1.10
COC(=O)CCCCN(C)C1(c2ccccc2Cl)CCCCC1=O (stereo not shown) [compound 21]
5.29
CCOC(=O)CCN[C@]1(c2ccccc2Cl)CCCCC1=O.Cl [(S)-C2Et]
2.38

Shift focus to the following entry.
Task item: Return reported PWR = 1 Dose, head-to-head ratio to ketamine. Input compound: COC(=O)CCCCN[C@]1(c2ccccc2Cl)CCCCC1=O.Cl [(S)-C4Me]
Reply: 1.76
